Target: CREB-binding protein (Homo sapiens, UniProt Q92793)
Assay: Induction of CBP degradation in human RS4-11 cells incubated for 4 hrs by Western blot assay
Sequence (Q92793 whole entry): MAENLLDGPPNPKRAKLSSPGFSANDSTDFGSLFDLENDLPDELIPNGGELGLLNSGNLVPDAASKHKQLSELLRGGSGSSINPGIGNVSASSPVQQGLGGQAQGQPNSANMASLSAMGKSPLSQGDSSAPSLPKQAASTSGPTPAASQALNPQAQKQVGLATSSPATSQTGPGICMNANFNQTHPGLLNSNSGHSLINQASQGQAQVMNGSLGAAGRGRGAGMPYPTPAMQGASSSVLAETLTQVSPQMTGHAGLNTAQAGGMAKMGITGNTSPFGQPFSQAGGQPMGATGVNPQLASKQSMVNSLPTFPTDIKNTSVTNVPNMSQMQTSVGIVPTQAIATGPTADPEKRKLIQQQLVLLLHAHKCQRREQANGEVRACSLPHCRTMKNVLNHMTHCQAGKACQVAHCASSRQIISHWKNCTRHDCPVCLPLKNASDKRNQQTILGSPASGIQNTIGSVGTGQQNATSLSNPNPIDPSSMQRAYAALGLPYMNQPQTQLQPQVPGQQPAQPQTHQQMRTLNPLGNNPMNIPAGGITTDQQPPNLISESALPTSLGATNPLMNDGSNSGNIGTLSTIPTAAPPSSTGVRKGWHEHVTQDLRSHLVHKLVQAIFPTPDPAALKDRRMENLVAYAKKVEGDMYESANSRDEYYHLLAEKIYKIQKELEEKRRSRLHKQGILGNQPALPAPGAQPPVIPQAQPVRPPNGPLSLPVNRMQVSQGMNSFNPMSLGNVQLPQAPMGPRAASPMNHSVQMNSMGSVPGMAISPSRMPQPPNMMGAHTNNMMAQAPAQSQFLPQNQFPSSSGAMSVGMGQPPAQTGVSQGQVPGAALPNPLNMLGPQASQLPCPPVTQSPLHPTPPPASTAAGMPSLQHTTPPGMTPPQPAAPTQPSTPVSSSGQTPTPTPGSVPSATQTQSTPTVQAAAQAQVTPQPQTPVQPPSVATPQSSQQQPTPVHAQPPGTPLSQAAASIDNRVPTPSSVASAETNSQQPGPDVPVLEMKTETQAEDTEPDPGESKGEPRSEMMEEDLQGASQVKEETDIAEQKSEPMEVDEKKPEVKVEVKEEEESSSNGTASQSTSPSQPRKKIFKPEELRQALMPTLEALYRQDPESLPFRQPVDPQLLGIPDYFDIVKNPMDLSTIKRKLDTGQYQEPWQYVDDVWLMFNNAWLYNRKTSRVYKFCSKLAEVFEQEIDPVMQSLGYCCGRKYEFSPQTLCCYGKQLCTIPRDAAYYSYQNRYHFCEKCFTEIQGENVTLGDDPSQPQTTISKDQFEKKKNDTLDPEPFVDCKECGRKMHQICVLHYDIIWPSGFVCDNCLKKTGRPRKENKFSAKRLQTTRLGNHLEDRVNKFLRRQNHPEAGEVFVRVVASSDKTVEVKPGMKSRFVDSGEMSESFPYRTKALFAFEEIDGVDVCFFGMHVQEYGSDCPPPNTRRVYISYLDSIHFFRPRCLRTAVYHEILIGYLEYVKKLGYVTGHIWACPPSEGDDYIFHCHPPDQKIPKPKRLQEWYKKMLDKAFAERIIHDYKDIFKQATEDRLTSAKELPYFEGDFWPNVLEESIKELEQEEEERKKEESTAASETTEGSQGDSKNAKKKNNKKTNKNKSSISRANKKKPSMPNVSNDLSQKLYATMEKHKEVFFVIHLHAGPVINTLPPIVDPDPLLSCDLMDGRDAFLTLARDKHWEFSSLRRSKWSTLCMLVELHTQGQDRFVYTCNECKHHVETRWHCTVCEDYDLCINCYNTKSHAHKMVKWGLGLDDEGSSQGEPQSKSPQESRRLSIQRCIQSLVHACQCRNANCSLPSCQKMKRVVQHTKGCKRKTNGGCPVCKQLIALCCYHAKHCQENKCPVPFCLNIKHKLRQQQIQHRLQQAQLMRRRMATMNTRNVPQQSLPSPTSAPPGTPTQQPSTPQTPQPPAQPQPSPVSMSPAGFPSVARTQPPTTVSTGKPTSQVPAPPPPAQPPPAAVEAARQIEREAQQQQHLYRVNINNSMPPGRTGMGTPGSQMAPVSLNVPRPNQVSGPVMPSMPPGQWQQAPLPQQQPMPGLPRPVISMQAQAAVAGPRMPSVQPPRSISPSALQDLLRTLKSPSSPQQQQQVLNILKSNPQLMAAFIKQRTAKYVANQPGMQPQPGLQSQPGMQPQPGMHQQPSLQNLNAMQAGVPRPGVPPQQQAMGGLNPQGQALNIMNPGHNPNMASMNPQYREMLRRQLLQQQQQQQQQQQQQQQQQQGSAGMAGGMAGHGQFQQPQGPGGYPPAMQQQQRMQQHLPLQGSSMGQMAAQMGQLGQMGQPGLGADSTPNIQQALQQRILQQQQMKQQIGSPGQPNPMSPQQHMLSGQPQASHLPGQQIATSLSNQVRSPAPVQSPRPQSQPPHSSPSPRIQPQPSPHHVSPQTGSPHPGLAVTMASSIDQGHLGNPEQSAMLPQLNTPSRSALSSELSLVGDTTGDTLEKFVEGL
pEC50: −log10 of the molar value.
Each entry gets 0 (no) if its pEC50 stays under 9, and 1 (yes) if its pEC50 is 9 or above.

compound | label
CC(=O)N1CCc2c(c(-c3cccc4cc(-c5ccc(C(=O)N6CCN(c7cccc8c7C(=O)N(C7CCC(=O)NC7=O)C8=O)CC6)nc5)ncc34)nn2C2CCOCC2)C1 (configuration not stated) | 1 (yes)

**Query** Please check the record CC(=O)N1CCc2c(c(-c3cccc4cc(-c5ccc(C(=O)N6CC7(CCC(Nc8cccc9c8C(=O)N(C8CCC(=O)NC8=O)C9=O)CC7)C6)nc5)ncc34)nn2C2CCOCC2)C1 (configuration not stated) and state if its pEC50 is at or above 9.
**Result** 0 (no)

**Query** Please check the record CC(=O)N1CCc2c(c(-c3cccc4cc(-c5ccc(C(=O)N6CCC(C7CCN(c8cccc9c8C(=O)N(C8CCC(=O)NC8=O)C9=O)CC7)CC6)nc5)ncc34)nn2C2CCOCC2)C1 (configuration not stated) and state if its pEC50 is at or above 9.
**Result** 0 (no)

**Query** Please check the record CC(=O)N1CCc2c(c(-c3cccc4cc(-c5ccc(C(=O)N6CCC(C7CN(c8cccc9c8C(=O)N(C8CCC(=O)NC8=O)C9=O)C7)CC6)nc5)ncc34)nn2C2CCOCC2)C1 (configuration not stated) and state if its pEC50 is at or above 9.
**Result** 0 (no)

**Query** Please check the record CC(=O)N1CCc2c(c(-c3cccc4cc(-c5ccc(C(=O)NC6CCN(c7ccc8c(c7)CN(C7CCC(=O)NC7=O)C8=O)CC6)nc5)ncc34)nn2C2CCOCC2)C1 (configuration not stated) and state if its pEC50 is at or above 9.
**Result** 1 (yes)

**Query** Please check the record CC(=O)N1CCc2c(c(-c3cccc4cc(-c5ccc(C(=O)NCCCc6cccc7c6CN(C6CCC(=O)NC6=O)C7=O)nc5)ncc34)nn2C2CCOCC2)C1 (configuration not stated) and state if its pEC50 is at or above 9.
**Result** 0 (no)

**Query** Please check the record CC(=O)N1CCc2c(c(-c3cccc4cc(-c5ccc(C(=O)NCCCCc6cccc7c6CN(C6CCC(=O)NC6=O)C7=O)nc5)ncc34)nn2C2CCOCC2)C1 (configuration not stated) and state if its pEC50 is at or above 9.
**Result** 1 (yes)

**Query** Please check the record CC(=O)N1CCc2c(c(-c3cccc4cc(-c5ccc(C(=O)NCCCNc6cccc7c6CN(C6CCC(=O)NC6=O)C7=O)nc5)ncc34)nn2C2CCOCC2)C1 (configuration not stated) and state if its pEC50 is at or above 9.
**Result** 1 (yes)

---

Molecular target: CREB-binding protein (Homo sapiens)
Assay: Induction of CBP degradation in human RS4-11 cells assessed as maximal degradation incubated for 4 hrs by Western blot assay
Assay type: cell-based
Sequence (Q92793 2-2442 limits assumed): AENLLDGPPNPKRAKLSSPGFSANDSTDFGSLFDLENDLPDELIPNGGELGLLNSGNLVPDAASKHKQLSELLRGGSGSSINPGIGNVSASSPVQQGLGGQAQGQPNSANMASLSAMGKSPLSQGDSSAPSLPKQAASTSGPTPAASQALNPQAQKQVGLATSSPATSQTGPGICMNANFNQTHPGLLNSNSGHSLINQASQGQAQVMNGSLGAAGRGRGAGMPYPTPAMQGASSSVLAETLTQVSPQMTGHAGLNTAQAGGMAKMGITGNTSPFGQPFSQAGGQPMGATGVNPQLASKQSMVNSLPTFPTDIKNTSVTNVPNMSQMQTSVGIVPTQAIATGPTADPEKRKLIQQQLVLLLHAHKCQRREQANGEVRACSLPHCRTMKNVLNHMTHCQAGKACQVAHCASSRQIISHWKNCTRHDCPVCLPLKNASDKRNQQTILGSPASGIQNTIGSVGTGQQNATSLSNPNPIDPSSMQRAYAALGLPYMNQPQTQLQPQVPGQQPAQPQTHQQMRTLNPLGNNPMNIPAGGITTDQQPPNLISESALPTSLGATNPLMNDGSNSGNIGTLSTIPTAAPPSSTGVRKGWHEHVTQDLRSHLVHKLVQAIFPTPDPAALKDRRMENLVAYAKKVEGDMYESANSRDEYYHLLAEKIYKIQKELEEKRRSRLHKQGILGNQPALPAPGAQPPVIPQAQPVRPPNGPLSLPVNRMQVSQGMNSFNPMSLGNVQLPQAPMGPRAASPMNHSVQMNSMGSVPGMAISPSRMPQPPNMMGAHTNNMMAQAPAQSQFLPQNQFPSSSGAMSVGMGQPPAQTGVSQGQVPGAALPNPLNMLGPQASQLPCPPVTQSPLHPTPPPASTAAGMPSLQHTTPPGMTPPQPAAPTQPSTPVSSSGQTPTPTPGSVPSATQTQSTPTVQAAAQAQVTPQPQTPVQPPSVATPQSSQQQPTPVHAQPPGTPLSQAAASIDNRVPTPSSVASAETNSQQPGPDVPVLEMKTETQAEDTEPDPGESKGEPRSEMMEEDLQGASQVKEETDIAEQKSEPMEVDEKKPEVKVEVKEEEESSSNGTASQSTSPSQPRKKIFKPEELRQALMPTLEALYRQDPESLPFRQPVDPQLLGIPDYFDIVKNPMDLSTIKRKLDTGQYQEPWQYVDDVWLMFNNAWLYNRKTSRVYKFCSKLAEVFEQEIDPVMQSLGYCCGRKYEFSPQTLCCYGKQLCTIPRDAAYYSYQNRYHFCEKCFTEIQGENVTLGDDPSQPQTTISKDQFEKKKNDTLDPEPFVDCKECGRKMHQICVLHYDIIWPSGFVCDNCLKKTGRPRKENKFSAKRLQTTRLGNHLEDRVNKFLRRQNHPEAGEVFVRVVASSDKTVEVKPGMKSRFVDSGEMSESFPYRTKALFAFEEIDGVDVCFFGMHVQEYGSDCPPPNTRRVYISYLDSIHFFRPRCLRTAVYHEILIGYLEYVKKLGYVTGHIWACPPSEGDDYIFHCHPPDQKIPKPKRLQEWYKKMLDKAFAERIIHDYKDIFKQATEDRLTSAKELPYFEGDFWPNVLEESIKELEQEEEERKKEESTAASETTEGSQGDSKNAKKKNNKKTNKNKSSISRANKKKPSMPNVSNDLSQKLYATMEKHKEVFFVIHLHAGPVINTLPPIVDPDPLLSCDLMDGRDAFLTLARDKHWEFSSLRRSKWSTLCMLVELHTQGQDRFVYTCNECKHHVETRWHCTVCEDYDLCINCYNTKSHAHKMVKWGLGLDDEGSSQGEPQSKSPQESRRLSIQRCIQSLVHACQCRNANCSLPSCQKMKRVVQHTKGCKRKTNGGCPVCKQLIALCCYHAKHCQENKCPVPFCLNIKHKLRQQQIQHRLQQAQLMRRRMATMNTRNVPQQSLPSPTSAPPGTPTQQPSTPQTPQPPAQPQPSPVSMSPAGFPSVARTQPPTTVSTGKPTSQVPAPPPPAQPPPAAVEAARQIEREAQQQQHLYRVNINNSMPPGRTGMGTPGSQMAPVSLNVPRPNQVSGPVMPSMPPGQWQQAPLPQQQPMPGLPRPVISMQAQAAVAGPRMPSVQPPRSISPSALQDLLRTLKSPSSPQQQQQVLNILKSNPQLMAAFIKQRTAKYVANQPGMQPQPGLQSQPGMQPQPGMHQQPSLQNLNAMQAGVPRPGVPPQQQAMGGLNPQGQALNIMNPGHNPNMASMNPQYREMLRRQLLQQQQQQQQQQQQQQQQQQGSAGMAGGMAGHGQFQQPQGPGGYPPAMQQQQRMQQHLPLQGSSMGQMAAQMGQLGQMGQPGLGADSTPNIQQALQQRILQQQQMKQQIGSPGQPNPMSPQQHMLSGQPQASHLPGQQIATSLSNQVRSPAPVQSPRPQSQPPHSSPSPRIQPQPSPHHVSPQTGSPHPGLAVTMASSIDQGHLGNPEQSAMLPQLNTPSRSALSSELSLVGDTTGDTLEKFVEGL
assayReadout: Emax (%)
Just the number in %, nothing appended.

molecule | target | number
CC(=O)N1CCc2c(c(-c3cccc4cc(-c5ccc(C(=O)NCCCCc6cccc7c6CN(C6CCC(=O)NC6=O)C7=O)nc5)ncc34)nn2C2CCOCC2)C1 (stereo unspecified) | CREB-binding protein (Homo sapiens) | 80
CC(=O)N1CCc2c(c(-c3cccc4cc(-c5ccc(C(=O)NCCCCCCCNc6cccc7c6C(=O)N(C6CCC(=O)NC6=O)C7=O)nc5)ncc34)nn2C2CCOCC2)C1 (stereo unspecified) | CREB-binding protein (Homo sapiens) | 99
CC(=O)N1CCc2c(c(-c3cccc4cc(-c5ccc(C(=O)N6CCC(Nc7cccc8c7C(=O)N(C7CCC(=O)NC7=O)C8=O)CC6)nc5)ncc34)nn2C2CCOCC2)C1 (stereo unspecified) | CREB-binding protein (Homo sapiens) | 86
CC(=O)N1CCc2c(c(-c3cccc4cc(-c5ccc(C(=O)N6CCN(c7cccc8c7C(=O)N(C7CCC(=O)NC7=O)C8=O)CC6)nc5)ncc34)nn2C2CCOCC2)C1 (stereo unspecified) | CREB-binding protein (Homo sapiens) | 99
CC(=O)N1CCc2c(c(-c3cccc4cc(-c5ccc(C(=O)NCCCCCNc6cccc7c6C(=O)N(C6CCC(=O)NC6=O)C7=O)nc5)ncc34)nn2C2CCOCC2)C1 (stereo unspecified) | CREB-binding protein (Homo sapiens) | 92

**Query** Suppose we examine the molecule CC(=O)N1CCc2c(c(-c3cccc4cc(-c5ccc(C(=O)NCCNc6ccc7c(c6)CN(C6CCC(=O)NC6=O)C7=O)nc5)ncc34)nn2C2CCOCC2)C1 (stereo unspecified) ; what Emax value has been reported?
**Result** 80
